ASSAYED_SYSTEM: T1, murine IL-11 (mouse, UniProt P47873 22-199)
T1 sequence: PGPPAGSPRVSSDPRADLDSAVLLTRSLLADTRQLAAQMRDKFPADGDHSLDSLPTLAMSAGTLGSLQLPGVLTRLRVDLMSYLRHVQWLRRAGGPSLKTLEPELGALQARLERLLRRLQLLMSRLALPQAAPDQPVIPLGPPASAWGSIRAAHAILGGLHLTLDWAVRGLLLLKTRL
ASSAY_EXPLANATION: cell-based or functional assay
# IC50, RGA 1 values compiled below
The reply should be a number in nM, with the unit left off.

In the examples that follow, each entry is paired with its recorded IC50, RGA 1.
TPP-31283 (antibody, IgG4, V domains shown) VH: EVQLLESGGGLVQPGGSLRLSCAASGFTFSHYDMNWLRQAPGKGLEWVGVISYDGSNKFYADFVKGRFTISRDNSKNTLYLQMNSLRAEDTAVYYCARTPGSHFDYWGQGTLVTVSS VL: QSVLTQPPSASGTPGQRVTISCSGSSSNIGNNAVNWYQQLPGTAPKLLIYYDDQLPSGVPDRFSGSKSGTSASLAISGLRSEDEADYYCSAWDDSLNGVVFGGGTKLTVL :: 247
TPP-31292 (antibody, IgG4, V domains shown, hIgG4 SPLE, lambda) VH: EVQLLESGGGLVQPGGSLRLSCAASGFTFSHYDMHWLRQAPGKGLEWVGVISYDGSNKFYADFVKGRFTISRDNSKNTLYLQMNSLRAEDTAVYYCARTPGSHFDYWGQGTLVTVSS VL: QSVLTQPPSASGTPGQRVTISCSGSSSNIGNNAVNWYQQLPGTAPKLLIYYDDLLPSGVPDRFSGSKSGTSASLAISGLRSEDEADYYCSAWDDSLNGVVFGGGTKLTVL :: 52

In the following, a different binder is considered.
The binder listed as TPP-31310 (antibody, IgG4, V domains shown) VH: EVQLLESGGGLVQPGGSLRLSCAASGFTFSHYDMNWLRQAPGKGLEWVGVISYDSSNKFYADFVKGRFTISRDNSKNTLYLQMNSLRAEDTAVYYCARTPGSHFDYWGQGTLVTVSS VL: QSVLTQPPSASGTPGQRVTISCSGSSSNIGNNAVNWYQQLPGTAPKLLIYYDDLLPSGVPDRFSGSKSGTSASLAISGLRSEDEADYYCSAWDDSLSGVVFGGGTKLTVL has a reported IC50, RGA 1 of 144
